Numbers sourced from ChEMBL document CHEMBL1139399.

- Tested on: NCI-H661
- Procedure Text: Antiproliferative activity against human NCI-H661 cells after 48 hrs in presence of beta-glucuronidase
- Assay type: functional, cell-based
- Cond: NCI-H661, 48 h
pIC50: −log10 of the molar value.
Measurement Name: pIC50

- Smiles Repr: "CC(=O)Nc1ccc(C(=O)Nc2ccccc2NC(=O)O[C@@H]2O[C@H](C(=O)O)[C@@H](O)[C@H](O)[C@H]2O)cc1"
  pIC50: 4.70
- Smiles Repr: "CC(=O)Nc1ccc(C(=O)Nc2ccccc2NC(=O)OCc2ccc(O[C@@H]3O[C@H](C(=O)O)[C@@H](O)[C@H](O)[C@H]3O)c([N+](=O)[O-])c2)cc1"
  pIC50: 4.70

###

- Procedure Text: Aqueous solubility in phosphate buffer at pH 7
- Assay type: physicochemical
Measurement Name: solubility (µg/mL)

- Smiles Repr: "CC(=O)Nc1ccc(C(=O)Nc2ccccc2NC(=O)O[C@@H]2O[C@H](C(=O)O)[C@@H](O)[C@H](O)[C@H]2O)cc1"
  solubility (µg/mL): 1000

P = CC(=O)Nc1ccc(C(=O)Nc2ccccc2NC(=O)OCc2ccc(O[C@@H]3O[C@H](C(=O)O)[C@@H](O)[C@H](O)[C@H]3O)c([N+](=O)[O-])c2)cc1
Q = CC(=O)Nc1ccc(C(=O)Nc2ccccc2N)cc1
Ask: When P and Q are compared, which has the higher number for solubility? Identify your pick by its label.
Reply: P
